- MEASURED ON: Prostaglandin G/H synthase 1 (Ovis aries) (UniProt P05979)
- PROTOCOL SUMMARY: Inhibition of ovine COX-1 mediated formation of 12-HHT from arachidonic acid assessed as remaining activity at 10 uM after 5 mins by HPLC analysis
REPORTED METRIC: Activity (%)
API: value field is a number in %; no unit string.

Observe how each entry below is paired with its result.
CCCC/C(=C\c1cc(OCCc2ccccc2)cc(OCCc2ccccc2)c1)C(=O)O	81.4
CCCC/C(=C\c1cc(OCCC2CCCCC2)ccc1OCCC1CCCCC1)C(=O)O	76.4
CCCCC(Cc1cccc(OCCc2ccccc2)c1OCCc1ccccc1)C(=O)O (centres undefined)	66.1

Prompt line: Would you kindly share the measured Activity for CCCCC(Cc1ccc(OCCc2ccccc2)c(OCCc2ccccc2)c1)C(=O)O (centres undefined) ?
Response line: 95.8

Prompt line: Same question, CCCCC(Cc1ccc(OCCc2ccccc2)cc1OCCc1ccccc1)C(=O)O (centres undefined) this time
Response line: 99.1

Prompt line: Same question, "CCCC/C(=C\c1cc(OCCC2CCCCC2)ccc1OCc1ccc(C(F)(F)F)cc1)C(=O)O" this time
Response line: 92.3
